# Test system: ECHORC (Watergrass (Calif.))
# Assay procedure: Postemergence weed control under flooded paddy conditions
# Type: in vivo, Echinochloa oryzoides
# Test settings: rate 0.0313 kg/ha, postemergence weeds, 3-4 weeks after treatment
# Description: Results of herbicide evaluation are expressed on a rating scale (0-9). The scale is based upon a visual observation of plant stand, vigor, malformation, size, chlorosis and overall plant appearance as compared with a control. Plastic containers containing weeds which are 3 to 5 cm tall and rice seedlings at the 1.5 to 2.5 leaf stage are flooded with water. […] The compounds evaluated are reported by compound number given in Example 37.
Attribute measured: Herbicidal rating ECHORC
Output: the number by itself.

Guide cases for Herbicidal rating ECHORC, answers given:
CCOC(=O)CN1C(=O)CN(C)C1=Nc1cc(-n2c(=O)cc(C(F)(F)F)n(C)c2=O)c(F)cc1Cl [Compound 25] | 4.0
CCOC(=O)CN1C(=O)C(Cc2ccccc2OC)SC1=Nc1cc(-n2c(=O)cc(C(F)(F)F)n(C)c2=O)c(F)cc1Cl (stereo not drawn) [Compound 37] | 4.0
CCOC(=O)CN1CC(=O)N(CC(=O)OCC)C1=Nc1cc(-n2c(=O)cc(C(F)(F)F)n(C)c2=O)c(F)cc1Cl [Compound 34] | 3.0

Q. For the compound shown here, Cn1c(C(F)(F)F)cc(=O)n(-c2cc(N=C3NC(=O)CS3)c(Cl)cc2F)c1=O [Compound 39] , give the reported Herbicidal rating ECHORC.
A. 0.0

Q. For the compound shown here, CCOC(=O)CN1C(=O)C(CC(=O)O)S/C1=N/c1cc(-n2c(=O)cc(C(F)(F)F)n(C)c2=O)c(F)cc1Cl (stereo not drawn) [Compound 16] , give the reported Herbicidal rating ECHORC.
A. 0.0

Q. For the compound shown here, C=CCN1C(=O)CSC1=Nc1cc(N2C(=O)C3=C(CCCC3)C2=O)c(F)cc1Cl [Compound 2] , give the reported Herbicidal rating ECHORC.
A. 1.0
